Molecular target: T1, 4H3588-AA
T1 chain: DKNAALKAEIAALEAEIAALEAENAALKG
Assay: two-hybrid library CCmax;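 further: natural log of median RNA to DNA barcode read ratio; higher means stronger binding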
Conditions: mean of both orientations
measure: interaction score
// keep it numeric: no unit symbol after the value

Exam item: Can you share its interaction score? I mean this binder: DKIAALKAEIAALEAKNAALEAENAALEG [4H2611-AA]
Marked response: -1.55

Exam item: Can you share its interaction score? I mean this binder: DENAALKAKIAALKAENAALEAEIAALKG [4H1874-AA]
Marked response: -1.22

Exam item: Can you share its interaction score? I mean this binder: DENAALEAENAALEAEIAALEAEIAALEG [4H1153-AA]
Marked response: -1.29

Exam item: Can you share its interaction score? I mean this binder: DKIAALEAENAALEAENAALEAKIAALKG [4H2198-AA]
Marked response: -1.24

Exam item: Can you share its interaction score? I mean this binder: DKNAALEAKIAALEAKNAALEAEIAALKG [4H3378-AA]
Marked response: -1.31

Exam item: Can you share its interaction score? I mean this binder: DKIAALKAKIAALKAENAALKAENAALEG [4H2907-AA]
Marked response: 1.57

Exam item: Can you share its interaction score? I mean this binder: DKNAALEAKIAALKAENAALEAKIAALEG [4H3413-AA]
Marked response: -1.34

Exam item: Can you share its interaction score? I mean this binder: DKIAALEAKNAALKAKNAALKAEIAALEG [4H2553-AA]
Marked response: -1.93

Exam item: Can you share its interaction score? I mean this binder: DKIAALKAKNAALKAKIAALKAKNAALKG [4H3056-AA]
Marked response: -0.439

Exam item: Can you share its interaction score? I mean this binder: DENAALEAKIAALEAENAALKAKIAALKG [4H1310-AA]
Marked response: -1.22

Exam item: Can you share its interaction score? I mean this binder: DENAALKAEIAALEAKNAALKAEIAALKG [4H1594-AA]
Marked response: -1.26

Exam item: Can you share its interaction score? I mean this binder: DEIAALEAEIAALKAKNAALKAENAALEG [4H123-AA]
Marked response: -0.454

Exam item: Can you share its interaction score? I mean this binder: DEIAALEAKIAALKAENAALEAENAALKG [4H340-AA]
Marked response: -0.126

Exam item: Can you share its interaction score? I mean this binder: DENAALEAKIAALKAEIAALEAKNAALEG [4H1351-AA]
Marked response: 0.934
